targetOrSystem: ATP-dependent translocase ABCB1 (Homo sapiens)
Sequence (P08183 whole entry): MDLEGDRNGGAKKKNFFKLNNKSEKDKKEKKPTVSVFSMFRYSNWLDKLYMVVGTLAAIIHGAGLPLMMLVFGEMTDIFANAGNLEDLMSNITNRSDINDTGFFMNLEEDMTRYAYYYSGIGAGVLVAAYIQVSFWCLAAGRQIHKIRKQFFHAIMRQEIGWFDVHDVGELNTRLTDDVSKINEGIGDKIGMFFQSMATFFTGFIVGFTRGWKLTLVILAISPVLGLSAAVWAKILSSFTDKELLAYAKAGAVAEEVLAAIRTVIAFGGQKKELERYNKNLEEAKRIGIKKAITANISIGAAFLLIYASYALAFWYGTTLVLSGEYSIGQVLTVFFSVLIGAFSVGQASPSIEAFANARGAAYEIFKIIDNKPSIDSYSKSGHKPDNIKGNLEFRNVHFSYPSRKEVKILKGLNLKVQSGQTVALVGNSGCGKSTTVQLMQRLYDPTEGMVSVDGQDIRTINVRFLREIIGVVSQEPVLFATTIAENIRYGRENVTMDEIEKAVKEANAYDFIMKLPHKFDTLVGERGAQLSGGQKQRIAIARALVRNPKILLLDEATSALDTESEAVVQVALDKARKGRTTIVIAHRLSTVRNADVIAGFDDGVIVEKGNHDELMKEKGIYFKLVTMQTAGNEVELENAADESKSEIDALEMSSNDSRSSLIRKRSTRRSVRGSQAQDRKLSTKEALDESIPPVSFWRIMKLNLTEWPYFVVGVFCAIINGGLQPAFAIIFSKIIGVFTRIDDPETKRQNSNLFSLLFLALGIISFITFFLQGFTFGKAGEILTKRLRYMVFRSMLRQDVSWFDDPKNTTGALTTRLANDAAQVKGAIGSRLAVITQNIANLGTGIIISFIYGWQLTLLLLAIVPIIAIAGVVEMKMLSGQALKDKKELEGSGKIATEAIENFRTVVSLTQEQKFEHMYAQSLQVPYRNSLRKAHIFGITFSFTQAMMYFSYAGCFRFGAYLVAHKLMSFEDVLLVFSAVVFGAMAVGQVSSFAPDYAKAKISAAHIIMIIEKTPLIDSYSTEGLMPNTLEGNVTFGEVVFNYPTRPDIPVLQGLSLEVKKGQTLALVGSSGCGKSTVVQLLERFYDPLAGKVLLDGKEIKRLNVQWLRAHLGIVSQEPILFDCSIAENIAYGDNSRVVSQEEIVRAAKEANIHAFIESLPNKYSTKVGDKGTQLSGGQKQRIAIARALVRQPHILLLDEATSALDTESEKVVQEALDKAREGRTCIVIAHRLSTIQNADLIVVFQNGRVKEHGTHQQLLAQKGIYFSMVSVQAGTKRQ
testProtocol: Inhibition of human Pgp in anthracycline-resistant K562 cells assessed as drug level causing maximal increase in nuclear concentration of pirarubicin relative to control
Type: cell-based
measuredEndpoint: Activity
Give a plain numeric answer without units written out.

Look over these answered cases.
compound: COc1cc(/C=C/C(=O)OC2CCC(N(C)C3CCC(OC(=O)c4cc(OC)c(OC)c(OC)c4)CC3)CC2)cc(OC)c1OC (mixture of isomers; cis)
targetOrSystem: ATP-dependent translocase ABCB1 (Homo sapiens)
Activity: 0.85

compound: COc1cc(C(=O)OC2CCC(N(C)C3CCC(OC(=O)c4c5ccccc5cc5ccccc45)CC3)CC2)cc(OC)c1OC (trans isomer)
targetOrSystem: ATP-dependent translocase ABCB1 (Homo sapiens)
Activity: 0.88

compound: COc1cc(C(=O)OC2CCC(N(C)C3CCC(OC(=O)c4c5ccccc5cc5ccccc45)CC3)CC2)cc(OC)c1OC (mixture of isomers; cis)
targetOrSystem: ATP-dependent translocase ABCB1 (Homo sapiens)
Activity: 0.95

compound: COc1cc(C(=O)OC2CCC(N(C)C3CCC(OC(=O)c4c5ccccc5cc5ccccc45)CC3)CC2)cc(OC)c1OC (mixture of isomers; trans)
targetOrSystem: ATP-dependent translocase ABCB1 (Homo sapiens)
Activity: 0.78

Quick check: Activity of COc1cc(/C=C/C(=O)OC2CCC(N(C)C3CCC(OC(=O)c4cc(OC)c(OC)c(OC)c4)CC3)CC2)cc(OC)c1OC (stereo in doubt) ?
0.81

Can you share its Activity? I mean this compound: COc1cc(/C=C/C(=O)OC2CCC(N(C)C3CCC(OC(=O)c4cc(OC)c(OC)c(OC)c4)CC3)CC2)cc(OC)c1OC (mixture of isomers; trans)
0.98
